Hello, the source for this data is ChEMBL document CHEMBL4364263, in case you need it.

Reported selectivity ratio is given for each of the following compounds.
assay: Selectivity index, ratio of IC50 for CHOK1 cells to MIC for Mycobacterium tuberculosis H37Rv; format: toxicity; details: hamster, CHO-K1 cells; read-out: Selectivity Index
Lab note: record the figure alone, no unit after it.

> print(dat)
                           given.smiles  result.number
1  CCOC(=O)c1nc(C(C)C)sc1-c1ccc(C#N)cc1           22.4

Please find the next compound below.
q: Give the value of selectivity ratio reported for the following: CCOC(=O)c1nc(C2CCCCC2)sc1-c1ccc(C#N)cc1
a: 35.8

====

test system: Staphylococcus aureus; assay: Antibacterial activity against Staphylococcus aureus ATCC 29213 assessed as growth inhibition incubated for 18 to 24 hrs by broth microdilution based antibiotic susceptibility testing method; type: functional
Measured parameter: MIC

> print(dat)
                              given.smiles   result
1  CCOC(=O)c1nc(C2CCCCC2)sc1-c1cccc(C#N)c1    50 µM
2    CCOC(=O)c1nc(C2CCCCC2)sc1-c1ccccc1C#N    50 µM
3     CCOC(=O)c1nc(C(C)C)sc1-c1ccc(C#N)cc1  > 50 µM
4  CCOC(=O)c1nc(C2CCCCC2)sc1-c1ccc(C#N)cc1    50 µM

Let us examine a further case.
q: Please look at CCOC(=O)c1nc(C(C)C)sc1-c1cnc2ccccc2c1 and tell me its recorded MIC on Staphylococcus aureus.
a: > 50 µM
